- Tested on: Botrytis cinerea
- Protocol Text: Antifungal activity against Botryotinia fuckeliana UCA 992 assessed as inhibition of radial growth at 50 ug/mL after 6 days relative to control
- Assay type: functional
- Experimental Conditions: UCA 992, 144 h
Answer 0.0 if inhibition at 50 µg/mL is under 50%, and 1.0 if it is 50% or more.

[[record]]
record_smiles = "CC1(C)C[C@H](O)[C@]23CC[C@H](O)[C@@](C)(CC[C@@H]12)C3"
target_entity = "Botrytis cinerea"
assigned_class = 0.0

[[record]]
record_smiles = "CC1(C)C[C@H](OCCn2cncn2)[C@]23CC[C@@H](O)[C@@](C)(CC[C@@H]12)C3"
target_entity = "Botrytis cinerea"
assigned_class = 0.0

[[record]]
record_smiles = "CO[C@H]1CC(C)(C)[C@@H]2CC[C@@]3(CO)C[C@]12CC[C@H]3O"
target_entity = "Botrytis cinerea"
assigned_class = 0.0


*Q* Confirm if inhibition at 50 µg/mL reported for the compound CC1(C)C[C@H](OCC[N+](=O)[O-])[C@]23CC[C@@H](O)[C@@](C)(CC[C@@H]12)C3 is 50% or above.
*A* 1.0

*Q* Confirm if inhibition at 50 µg/mL reported for the compound CC1(C)C[C@H](OCCI)[C@]23CC[C@@H](O)[C@@](C)(CC[C@@H]12)C3 is 50% or above.
*A* 1.0

*Q* Confirm if inhibition at 50 µg/mL reported for the compound CC1(C)C[C@H](OCCO)[C@]23CC[C@@H](O)[C@@](C)(CC[C@@H]12)C3 is 50% or above.
*A* 0.0

Just for reference, ChEMBL document CHEMBL3046965 is where these values come from.
